Source: the supplement of paper PMC9170038

Recorded measurements of apparent KD of MS2 coat protein, one per entry
tested on: MS2 coat protein; test: apparent KD of MS2 coat protein; higher = weaker reporter binding; conditions: Eterna round: R107; input ligand: arginine 13.2 mM
Could you give me the number in nM? Just the number is fine.

Record excerpt, results attached:
INSERT INTO assay_data (input_sequence, measurement_label, unit_info, readout_value) VALUES
  ('UGUAUGGACUGAAGGAGCGGGUAAAUAACCUGAGGAUCACCCAGGUAAAAGGCGAAAGCCACCCAGGUAGGUCGCAGUCCAUACU', 'apparent KD of MS2 coat protein', 'nM', 10.6),
  ('CCGGCGCGAUUAUGGGUUUGCUUUUACGAUACCAGCCGCGUUCCGGGCCCUUGGCAGCGUGUAACAUGAGGAUCACCCAUGUUCA [theeternabot_exclusion_MS2_Theo_A_37]', 'apparent KD of MS2 coat protein', 'nM', 9.81),
  ('UGUAUGUGAUCUGAUACCAGAGUGAAUAAACCUGAGGAUCACCCUGGUAGGCGAAAGCCACUCCCUUGGCAGCAGAUCGCAUACU', 'apparent KD of MS2 coat protein', 'nM', 102);

Incoming: Can you look up the measured apparent KD of MS2 coat protein of UGCGAUUGCUCAGAUACCAGACAUGAGGAUCACCCAUGUACCAAGGUAAAGAAAUAACGUGUCCCUUGGCAGCUGAGCAAUCGCU [MAT - Exclusion Theophlline B - Mod of Eli - D9] for me?
Outgoing: 11.9

Incoming: Find the recorded apparent KD of MS2 coat protein belonging to UUCACAUGGUAUGAAUAUACAUACAAGAAACGAGGACCGGUACGGCCGCCACUCGUGCCGGAAACAUGAGGAUCACCCAUGUGUU [AK1.2 Exclusion TrypA mod IceBolt] and report it.
Outgoing: 21.5

Incoming: Entry under review: CUGACAGACUCGGCCGCCACUGAUAGUAGGACAUGAGGAUCACCCAUGUAAACAAACCUCAUAGCCAGGACCGGGAGUCACGAAG [Same State Tryptophan B GF 21] . Reported apparent KD of MS2 coat protein?
Outgoing: 31

Incoming: Could you tell me which apparent KD of MS2 coat protein is on file for GCACCAGGUACGGAUACCAGACGUUGCCAAUUGGGUGCACAUGAGGAUCACCCAUGUUCUGUCCCUUGGCAGCCGUACCUGGUGC [EThB NP+V+V2 #5] ?
Outgoing: 10.2

Incoming: Fill blank: measured apparent KD of MS2 coat protein of the sequence AGCAACAAGUCGGCCGCCACUCUUUUUACAUGAGGAUCACCCAUGUUUAUAUCAUGGUCUUAAUAGAGGACCGGGACAGUUGCAU [JR_ExcTryptoB_Sub006] is ____.
Outgoing: 28.6

Incoming: Any idea what apparent KD of MS2 coat protein was measured for AUAAGGUAUCUGCUUCAUGGGUGAGCAGAUACCAGCUAGGAAACUAGCCCUUGGCAGCUGCAACAUGAGGAUCACCCAUGUAAUA [(T)'-(M)'-(T1)-(T2)-(M1)-(M2)_Design2] ?
Outgoing: 60.7

Incoming: Recorded apparent KD of MS2 coat protein for CUGCCACAGAUAGAUACCAGAGGCGUGCAAGCUACAGCUCACAUGAGGAUCACCCAUGUUCUCCCUUGGCAGCUACGGUGUAAGG [theeternabot_exclusion_MS2_Theo_B_26] , please?
Outgoing: 17.1

Incoming: apparent KD of MS2 coat protein lookup needed for CGCUACAUAGCGGCCGCCACUGUCAUGGCUACGAUAGGUCACUCGUACAUGAGGAUCACCCAUGUCAGGACCGGGCUAUCCUCGC [theeternabot_exclusion_MS2_Trp_B_20] , thanks.
Outgoing: 64.9

###

Reported apparent KD of MS2 coat protein by item:
test system: MS2 coat protein; assay: apparent KD of MS2 coat protein; designed switch direction (-1 OFF switch, 1 ON switch): 1; higher = weaker reporter binding; details: input ligand: none
Answer format: numeric, µM implied, no suffix.

Look over these answered cases.
INSERT INTO measurements (input_sequence, measured_on, unit_info, readout_value) VALUES
  ('GGUCCAUCAUGAGGAUAUGGCACCUUAUUGGUGCCAGAAGGCAUGUCUAUUAGACAUGAGGAUCACCCAUGUAUAAAUUGGACC [Eli NG1ss - 91] (Eterna round: R96, puzzle: Same State NG 1)', 'MS2 coat protein', 'µM', 1.13),
  ('GGAAACAAGAGAGGAUAUGCAGAGGAUCACCCUGUAGAAGGCUCCCUAGAGAGGAUAUGCAGAGGAUCACCCUGCAGAAGGCUC [pwkr ssNG DX.18] (Eterna round: R96, puzzle: Same State NG 1)', 'MS2 coat protein', 'µM', 0.0891),
  ('UUAAUAAUGAUAGGAUAUACAUGAGGAAUUCUCGUAGAAGGAUCAUGACAUGAGGAUCACCCAUGUAACGCUCGGAAGAGCGUA [Mat - Same State NG 1 - JL mod - D38] (Eterna round: R96, puzzle: Same State NG 1)', 'MS2 coat protein', 'µM', 0.909);

Incoming: Recorded apparent KD of MS2 coat protein for GUUAGGAAUCUAGCAAACAUGAGGAUCACCCAUGUAAGUGGGAAGGAUAUGGUACAGAAACUGUACCAGAAGGUCUUAUUAAUU [Omei SS(NG) 3 AV1] (Eterna round: R96, puzzle: Same State NG 3) with MS2 coat protein, please?
Outgoing: 0.306

###

test system: MS2 coat protein; assay: apparent KD of MS2 coat protein; designed switch direction (-1 OFF switch, 1 ON switch): 1; higher = weaker reporter binding; settings: input ligand: none
Recorded apparent KD of MS2 coat protein determines the label; the label ranges are lowest = under 40 nM, middle = from 40 nM up to 200 nM, highest = 200 nM and over

Please review the entries below; each comes with its answer.
INSERT INTO measurements (input_sequence, answer_label) VALUES
  ('AGAUGUUAAUCAGGAUAUGGGCACAUGAGGAUCACCCAUGUAAAUUAGAUACUAUGUGGUCAAGUCUAGAAGGGAUGGCUAACA [SameState NG2 #81] (Eterna round: R96, puzzle: Same State NG 2)', 'middle'),
  ('CGACGCACGGCAGGAUAUCGAUUCCAAAGGAAUCGAGAAGGGCCUCAUGUCGUGGAAACGUGACAUGAGGAUCACCCAUGUUGC [Omei SS(NG)1 Cv19] (Eterna round: R96, puzzle: Same State NG 1)', 'lowest'),
  ('ACAUGAGACAUAGGAUAUCUUGUACCUACAUGUGACAUGAGGAUCACCCAUGUGGUAAGUAUGAGAGAGAAGGAUGAGAUAUGU [Equivalence 48 - Jieux - Same State NG 2] (Eterna round: R96, puzzle: Same State NG 2)', 'lowest'),
  ('UAUCGUUUGAUAGGAUAUCGCUAUACAUGAGGAUCACCCAUGUUUACCACGCUGGUUUUUCAUACCGAGAAGGAUUCUGAUGAG [salish99_SSNG02_r04_005] (Eterna round: R96, puzzle: Same State NG 2)', 'middle'),
  ('CCGCUCCGUGGAGGAUAUGGGCCUGCCCGGGAUACCGAGCCUAACACAUGAGGAUCACCCAUGUCCCAGAAGGCCGCUGGAGCC [Inusaron] (Eterna round: R96, puzzle: Same State NG 2)', 'middle'),
  ('UGUUUGUUGUGAGGAUAUACGUACACCUUACAUGAGGAUCACCCAUGUUGUUUCUUUGAUUGUUGGUAGAAGGCACUUGGUUAU [JR_SSNG2_Sub048] (Eterna round: R96, puzzle: Same State NG 2)', 'highest'),
  ('UUGAAGAAUUAAGGAUAUUGAGUACAUAUGUUAAACAUGAGGAUCACCCAUGUGGGUUGCGGUAUCGAGAAGGUAAAUUACUAG [Mat - same State NG 2 - JL mod - D68] (Eterna round: R96, puzzle: Same State NG 2)', 'middle'),
  ('CCAACAUACAAUUUAAGAUCACAUGAGGAUCACCCAUGUAUGCAGGAUAUCAGCUCGAAUAGAGCUGAGAAGGGCAAUUUAAUU [SSNG3/1-A1] (Eterna round: R96, puzzle: Same State NG 3)', 'highest'),
  ('AAUCGUUUGAUAGGAUAUCGCUAUACAUGAGGAUCACCCAUGUUUACCACGCUGGUUUUUCGUACCGAGAAGGAUUCUGAUGAU [JL JR sub007 mod 4] (Eterna round: R96, puzzle: Same State NG 2)', 'lowest'),
  ('UUAGCGACGGAAGGAUAUUGGACGCUAACAUGAGGAUCACCCAUGUAGAGGUCCUACCAACAGCGCAAGAAGGUCCGAUCAGCA [Eternabot solution 13] (Eterna round: R96, puzzle: Same State NG 2)', 'lowest');

Incoming: Band for the recorded apparent KD of MS2 coat protein of UGCCUGAGUCGAGGAUAUUAUGGAUCAAUUAAUACAUGAGGAUCACCCAUGUAAUUAAUUUAACAUGAGAAGGUGACUCAGGCA [SSNG2/10-B2] (Eterna round: R96, puzzle: Same State NG 2) ?
Outgoing: lowest

Incoming: # bin label for AUAAUUAAUGCAGGAUAUGAUUAACAUGAGGAUCACCCAUGUGGUGUUGUGAGUAAGGAGAGUGAUCAGAAGGGCAUUUUUUUU [JMF's solution 33] (Eterna round: R96, puzzle: Same State NG 2)
Outgoing: highest

Incoming: Please indicate the class for AGCUAUUACGAAGGAUAUUCUGACAUGAGGAUCACCCAUGUCUUCAUGAUUUAUUGUGAUCACAUGAAGAAGGUUGUACUAACA [SameState NG2 #25] (Eterna round: R96, puzzle: Same State NG 2) based on its apparent KD of MS2 coat protein.
Outgoing: middle

Incoming: Each sequence maps to one class by apparent KD of MS2 coat protein. Which class for ACAUGAGGAUCACCCAUGUAACACCUGAAAAUAAAACGAACACAGGAUAUCCCGACAUGACGUUGGGAGAAGGGUGAUCGAAGA [Leenrien] (Eterna round: R96, puzzle: Same State NG 3) ?
Outgoing: lowest

Incoming: Which of the defined bands does the recorded apparent KD of MS2 coat protein of ACAUGACAUGACAUGAGGAUCACCCAUGUGAGGAUCACCCGGGAGGAUAUAGCCCAUGUGGAUCACUAGAAGGCCCUGAGGAUC [Same State NG3 S1] (Eterna round: R96, puzzle: Same State NG 3) sit within?
Outgoing: middle

Incoming: Lab note: which band did GCUGGAAACCACAUGAGGAUCACCCAUGUUCCGGAAACGGCACAGGAUAUCUGUCCGAAAAGGUCAGAGAAGGGUGGAACCAGC [Fiskers NG3ss - 82] (Eterna round: R96, puzzle: Same State NG 3) land in?
Outgoing: highest

Incoming: Class (by measured apparent KD of MS2 coat protein) for UAUUUAAUCAUAGGAUAUAGUGUGAAAUUUGGACUAGAAGGAUGUAACAUGAGGAUCACCCAUGUGGUAAGUGGGAUACAUUCC [JR_SSNG1_Sub098] (Eterna round: R96, puzzle: Same State NG 1)
Outgoing: middle

Incoming: Which class does CUCGUAUCGGGAGGAUAUGGUGCCUUGUUGGUGCUAGAAGGUCCAACAUGAGGAUCACCCAUGUGCGAGUGGUUGAGAGACCUC [SS NG10LRO14] (Eterna round: R96, puzzle: Same State NG 1) fall in?
Outgoing: highest
